B1: Azoarcus group I ribozyme (parent)
chain: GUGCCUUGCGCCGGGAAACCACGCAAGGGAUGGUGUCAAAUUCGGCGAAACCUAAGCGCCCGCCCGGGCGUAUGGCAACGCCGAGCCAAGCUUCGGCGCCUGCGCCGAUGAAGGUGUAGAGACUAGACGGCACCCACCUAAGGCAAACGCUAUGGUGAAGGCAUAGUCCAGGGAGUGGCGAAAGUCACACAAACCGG

# Variants of: B1
# Procedure text: reverse-splicing fitness (ratio to wild type); higher = more active; in vitro selection; Mg2+ level not given
Decide by reverse-splicing fitness: equal to or exceeding 0.01 means yes, less means no.

{"Variant designation": "A111G A145U C169G U176G", "Label class": "no"}
{"Variant designation": "C82A A111G A120C A145U C150U C169A U176C", "Label class": "yes"}
{"Variant designation": "A111G A120C A145C C150U U176G", "Label class": "yes"}
{"Variant designation": "A111C A120G C150U C169A", "Label class": "yes"}
{"Variant designation": "C82U A111U C169A U176G", "Label class": "no"}
{"Variant designation": "C82U A111U A120U A145C C150G C169A U176A", "Label class": "no"}
{"Variant designation": "A111G A120G C150A U176G", "Label class": "no"}
{"Variant designation": "C82G A111G A120C C150A C169G U176A", "Label class": "yes"}
{"Variant designation": "A111U A120G A145C U176A", "Label class": "yes"}
{"Variant designation": "C82A A111U A120U A145G C150G C169U U176A", "Label class": "no"}
{"Variant designation": "A120C A145U C150U C169G U176A", "Label class": "yes"}
{"Variant designation": "A111U A120C C150A U176C", "Label class": "yes"}
{"Variant designation": "A111C A120G A145G U176G", "Label class": "no"}
{"Variant designation": "C82U A111C A120C A145G C150U C169G", "Label class": "no"}
